Please respond with reported IC50 for every item in the list.
biological target: SERT (Homo sapiens); experiment: [3H]5-HT uptake to human platelets
Sequence (P31645 whole entry): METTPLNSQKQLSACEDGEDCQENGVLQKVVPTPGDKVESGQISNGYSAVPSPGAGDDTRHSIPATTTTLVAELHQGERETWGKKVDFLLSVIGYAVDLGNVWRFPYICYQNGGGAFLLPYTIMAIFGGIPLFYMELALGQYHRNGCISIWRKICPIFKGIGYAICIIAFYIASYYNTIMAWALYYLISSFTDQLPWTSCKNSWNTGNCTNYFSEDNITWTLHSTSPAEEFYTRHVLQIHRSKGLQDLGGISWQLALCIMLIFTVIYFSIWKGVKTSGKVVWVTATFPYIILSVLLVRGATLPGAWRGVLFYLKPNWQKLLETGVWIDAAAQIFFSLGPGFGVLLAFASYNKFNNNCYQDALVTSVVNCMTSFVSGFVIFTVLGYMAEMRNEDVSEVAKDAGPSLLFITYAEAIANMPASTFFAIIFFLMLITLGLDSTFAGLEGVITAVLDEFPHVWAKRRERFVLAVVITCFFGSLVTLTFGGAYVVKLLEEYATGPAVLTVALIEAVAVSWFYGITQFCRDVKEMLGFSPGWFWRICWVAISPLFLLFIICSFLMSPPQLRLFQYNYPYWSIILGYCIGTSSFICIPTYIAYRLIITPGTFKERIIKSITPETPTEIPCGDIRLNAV
Please state the figure in nM; there is no need to write the unit.

QUERY: Name the recorded IC50 for Cl.Fc1ccc(C2(OCc3ccc4c(c3)OCO4)CCNCC2)cc1 [20d] .
RESULT: 2.64

QUERY: Name the recorded IC50 for Cl.Fc1ccc(C2(OCc3ccc(C(F)(F)F)cc3)CCNCC2)cc1 [compound 20b] .
RESULT: 0.13

QUERY: Name the recorded IC50 for Cl.FC(F)(F)c1ccc(COC2(c3ccc(C(F)(F)F)cc3)CCNCC2)cc1 [21b] .
RESULT: 4.2

QUERY: Name the recorded IC50 for Cl.FC(F)(F)c1ccc(C2(OCc3ccc4c(c3)OCO4)CCNCC2)cc1 [21d] .
RESULT: 4.9

====

target: DAT (Oryctolagus cuniculus); assay: [3H]WIN 35,428 binding assay to rabbit striatal membranes; details: mean ± SE of three or more experiments, tested as hydrochloride salts
Sequence (Z9V7K4Q734 1-627): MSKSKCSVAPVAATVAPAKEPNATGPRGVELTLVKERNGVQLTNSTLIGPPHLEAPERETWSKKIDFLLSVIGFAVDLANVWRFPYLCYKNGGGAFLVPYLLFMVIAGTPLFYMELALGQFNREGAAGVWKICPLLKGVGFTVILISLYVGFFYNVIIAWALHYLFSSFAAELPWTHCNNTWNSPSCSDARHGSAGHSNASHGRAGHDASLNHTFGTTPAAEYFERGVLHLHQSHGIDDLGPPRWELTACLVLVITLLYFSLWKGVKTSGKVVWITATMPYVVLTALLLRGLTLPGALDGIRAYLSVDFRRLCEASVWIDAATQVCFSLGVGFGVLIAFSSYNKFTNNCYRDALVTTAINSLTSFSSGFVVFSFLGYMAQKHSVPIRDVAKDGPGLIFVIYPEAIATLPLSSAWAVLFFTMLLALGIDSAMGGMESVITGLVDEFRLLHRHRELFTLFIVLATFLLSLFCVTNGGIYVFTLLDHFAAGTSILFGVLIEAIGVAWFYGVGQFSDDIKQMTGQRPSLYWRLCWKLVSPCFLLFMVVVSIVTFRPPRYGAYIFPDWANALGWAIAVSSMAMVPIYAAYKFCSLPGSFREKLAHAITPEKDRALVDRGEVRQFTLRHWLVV
pKi: −log10 of the molar value.
Quantity: pKi

QUERY: Name the recorded pKi for Cl.Fc1ccc(C2(OCc3ccccc3F)CCNCC2)cc1 [20c] .
RESULT: < 4.00

QUERY: Name the recorded pKi for Cl.Fc1ccc(COC2(c3ccc(C(F)(F)F)cc3)CCNCC2)cc1 [21a] .
RESULT: < 4.00

QUERY: Name the recorded pKi for Cl.Fc1ccc(COC2(c3ccc(F)cc3)CCNCC2)cc1 [20a] .
RESULT: < 4.00

QUERY: Name the recorded pKi for Cl.Fc1ccccc1COC1(c2ccc(C(F)(F)F)cc2)CCNCC1 [21c] .
RESULT: 4.95

====

target: NET (Oryctolagus cuniculus, UniProt G1TDF9); construct: tissue Charles River Laboratories, Inc. (animals); host or cells: cerebral cortex of New Zealand White rabbit; test: [3H]nisoxetine binding assay to rabbit cortical membranes
Sequence (G1TDF9 1-617): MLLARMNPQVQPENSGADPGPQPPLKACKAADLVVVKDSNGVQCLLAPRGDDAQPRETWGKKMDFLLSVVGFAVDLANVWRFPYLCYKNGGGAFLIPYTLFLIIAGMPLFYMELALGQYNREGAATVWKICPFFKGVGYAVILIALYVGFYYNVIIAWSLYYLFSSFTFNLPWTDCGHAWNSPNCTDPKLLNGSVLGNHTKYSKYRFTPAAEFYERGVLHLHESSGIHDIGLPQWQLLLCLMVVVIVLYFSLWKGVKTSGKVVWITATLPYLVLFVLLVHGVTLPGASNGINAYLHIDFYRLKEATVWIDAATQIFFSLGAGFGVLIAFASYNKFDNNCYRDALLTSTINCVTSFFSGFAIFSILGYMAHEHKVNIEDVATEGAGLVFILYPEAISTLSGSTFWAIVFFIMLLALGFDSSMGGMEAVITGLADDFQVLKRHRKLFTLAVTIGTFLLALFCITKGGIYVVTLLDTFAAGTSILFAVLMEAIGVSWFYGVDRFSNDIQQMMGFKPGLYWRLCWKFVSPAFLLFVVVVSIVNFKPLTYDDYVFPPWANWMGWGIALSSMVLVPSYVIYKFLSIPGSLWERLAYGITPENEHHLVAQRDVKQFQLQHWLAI
pKi: −log10 of the molar value.
Quantity: pKi

QUERY: Name the recorded pKi for Cl.Fc1ccc(COC2(c3ccc(C(F)(F)F)cc3)CCNCC2)cc1 [21a] .
RESULT: < 5.00
